subject of test: Neu5Gc(a2-6)Gal(b1-4)GlcNAc
assay info: glycan array binding signal (z-score within array); higher = stronger binding
test context: glycan notation: IUPAC condensed, linker removed
The sample as a whole holds a higher share of the strongest signals than the screen did.
Below, each entry is listed with its recorded glycan array binding signal (z-score).

binder	glycan array binding signal (z-score)
Gal 10 (Homo sapiens), Q05315 (protein) MSLLPVPYTEAASLSTGSTVTIKGRPLVCFLNEPYLQVDFHTEMKEESDIVFHFQVCFGRRVVMNSREYGAWKQQVESKNMPFQDGQEFELSISVLPDKYQVMVNGQSSYTFDHRIKPEAVKMVQVWRDISLTKFNVSYLKR	-0.495
OGAN (protein) MVQKESQATLEERESELSSNPAASAGASLEPPAAPAPGEDNPAGAGGAAVAGAAGGARRFLCGVVEGFYGRPWVMEQRKELFRRLQKWELNTYLYAPKDDYKHRMFWREMYSVEEAEQLMTLISAAREYEIEFIYAISPGLDITFSNPKEVSTLKRKLDQVSQFGCRSFALLFNDIDHNMCAADKEVFSSFAHAQVSITNEIYQYLGEPETFLFCPTEYCGTFCYPNVSQSPYLRTVGEKLLPGIEVLWTGPKVVSKEIPVESIEEVSKIIKRAPVIWDNIHANDYDQKRLFLGPYKGRSTELIPRLKGVLTNPNCEFEANYVAIHTLATWYKSNMNGVRKDVVMTDSEDSTVSIQIKLENEGSDEDIETDVLYSPQMALKLALTEWLQEFGVPHQY	-0.071
Gal 4 (Mus musculus), P56470 (protein) MAYVPAPGYQPTYNPTLPYYQPIPGGLNVGMSVYIQGVASEHMKRFFVNFVVGQDPGSDVAFHFNPRFDGWDKVVFNTLQGGKWGSEERKRSMPFKKGAAFELVFIVLAEHYKVVVNGNPFYEYGHRLPLQMVTHLQVDGDLQLQSINFIGGQPLRPQGPPMMPPYPGPGHCHQQLNSLPTMEGPPTFNPPVPYFGRLQGGLTARRTIIIKGYVPPTGKSFAINFKVGSSGDIALHINPRMGNGTVVRNSLLNGSWGSEEKKITHNPFGPGQFFDLSIRCGLDRFKVYANGQHLFDFAHRLSAFQRVDTLEIQGDVTLSYVQI	-0.231
